settings: in acetonitrile, 298.15 K
measurement label: solubility (mole fraction)
Note: the reply should be a number with no unit written.

Query (molecule): `S=c1[nH]c2ccccc2s1` ; field requested: solubility (mole fraction)
0.00956

* * *

conditions: in n-butanol, 280.65 K
measurement label: solubility (mole fraction)
Note: the reply should be a number with no unit written.

Query (compound): `S=c1[nH]c2ccccc2s1` ; field requested: solubility (mole fraction)
0.0238

* * *

conditions: in isobutanol, 295.65 K
measurement label: solubility (mole fraction)
Note: the reply should be a number with no unit written.

Query (molecule): `S=c1[nH]c2ccccc2s1` ; field requested: solubility (mole fraction)
0.0215

* * *

settings: in 2-butanone, 295.65 K
measurement label: solubility (mole fraction)
Note: the reply should be a number with no unit written.

Query (compound): `S=c1[nH]c2ccccc2s1` ; field requested: solubility (mole fraction)
0.0967

* * *

conditions: in chloroform, 278.15 K
measurement label: solubility (mole fraction)
Note: the reply should be a number with no unit written.

Query (compound): `S=c1[nH]c2ccccc2s1` ; field requested: solubility (mole fraction)
0.00766

* * *

settings: in 1,4-dioxane, 303.15 K
measurement label: solubility (mole fraction)

Query (compound): `S=c1[nH]c2ccccc2s1` ; field requested: solubility (mole fraction)
0.0698

* * *

settings: in acetonitrile, 313.15 K
measurement label: solubility (mole fraction)
Note: the reply should be a number with no unit written.

Query (compound): `S=c1[nH]c2ccccc2s1` ; field requested: solubility (mole fraction)
0.0146

* * *

conditions: in n-propanol, 318.15 K
measurement label: solubility (mole fraction)

Query (molecule): `S=c1[nH]c2ccccc2s1` ; field requested: solubility (mole fraction)
0.0421

* * *

details: in acetonitrile, 273.15 K
measurement label: solubility (mole fraction)
Note: the reply should be a number with no unit written.

Query (compound): `S=c1[nH]c2ccccc2s1` ; field requested: solubility (mole fraction)
0.00426

* * *

settings: in 2-butanone, 318.15 K
measurement label: solubility (mole fraction)
Note: the reply should be a number with no unit written.

Query (compound): `S=c1[nH]c2ccccc2s1` ; field requested: solubility (mole fraction)
0.128

* * *

settings: in 1,4-dioxane, 310.65 K
measurement label: solubility (mole fraction)
Note: the reply should be a number with no unit written.

Query (compound): `S=c1[nH]c2ccccc2s1` ; field requested: solubility (mole fraction)
0.0835

* * *

conditions: in n-butanol, 318.15 K
measurement label: solubility (mole fraction)
Note: the reply should be a number with no unit written.

Query (compound): `S=c1[nH]c2ccccc2s1` ; field requested: solubility (mole fraction)
0.0513

* * *

conditions: in 2-butanone, 280.65 K
measurement label: solubility (mole fraction)
Note: the reply should be a number with no unit written.

Query (compound): `S=c1[nH]c2ccccc2s1` ; field requested: solubility (mole fraction)
0.0778

* * *

conditions: in ethyl acetate, 273.15 K
measurement label: solubility (mole fraction)
Note: the reply should be a number with no unit written.

Query (compound): `S=c1[nH]c2ccccc2s1` ; field requested: solubility (mole fraction)
0.0274

* * *

conditions: in n-butanol, 273.15 K
measurement label: solubility (mole fraction)
Note: the reply should be a number with no unit written.

Query (molecule): `S=c1[nH]c2ccccc2s1` ; field requested: solubility (mole fraction)
0.0198

* * *

settings: in ethyl acetate, 288.15 K
measurement label: solubility (mole fraction)
Note: the reply should be a number with no unit written.

Query (compound): `S=c1[nH]c2ccccc2s1` ; field requested: solubility (mole fraction)
0.0348

* * *

conditions: in 1,4-dioxane, 290.65 K
measurement label: solubility (mole fraction)

Query (molecule): `S=c1[nH]c2ccccc2s1` ; field requested: solubility (mole fraction)
0.0502

* * *

settings: in chloroform, 318.15 K
measurement label: solubility (mole fraction)
Note: the reply should be a number with no unit written.

Query (compound): `S=c1[nH]c2ccccc2s1` ; field requested: solubility (mole fraction)
0.0182

* * *

conditions: in 2-butanone, 298.15 K
measurement label: solubility (mole fraction)

Query (compound): `S=c1[nH]c2ccccc2s1` ; field requested: solubility (mole fraction)
0.0995

* * *

conditions: in toluene, 318.15 K
measurement label: solubility (mole fraction)
Note: the reply should be a number with no unit written.

Query (compound): `S=c1[nH]c2ccccc2s1` ; field requested: solubility (mole fraction)
0.00608

* * *

details: in toluene, 300.65 K
measurement label: solubility (mole fraction)
Note: the reply should be a number with no unit written.

Query (compound): `S=c1[nH]c2ccccc2s1` ; field requested: solubility (mole fraction)
0.00405

* * *

conditions: in acetonitrile, 290.65 K
measurement label: solubility (mole fraction)
Note: the reply should be a number with no unit written.

Query (compound): `S=c1[nH]c2ccccc2s1` ; field requested: solubility (mole fraction)
0.00762

* * *

conditions: in n-propanol, 298.15 K
measurement label: solubility (mole fraction)
Note: the reply should be a number with no unit written.

Query (molecule): `S=c1[nH]c2ccccc2s1` ; field requested: solubility (mole fraction)
0.0277

* * *

settings: in n-butanol, 293.15 K
measurement label: solubility (mole fraction)
Note: the reply should be a number with no unit written.

Query (compound): `S=c1[nH]c2ccccc2s1` ; field requested: solubility (mole fraction)
0.0314

* * *

conditions: in ethyl acetate, 318.15 K
measurement label: solubility (mole fraction)

Query (compound): `S=c1[nH]c2ccccc2s1` ; field requested: solubility (mole fraction)
0.0532

* * *

settings: in methanol, 303.15 K
measurement label: solubility (mole fraction)

Query (compound): `S=c1[nH]c2ccccc2s1` ; field requested: solubility (mole fraction)
0.0192

* * *

settings: in ethyl acetate, 283.15 K
measurement label: solubility (mole fraction)
Note: the reply should be a number with no unit written.

Query (molecule): `S=c1[nH]c2ccccc2s1` ; field requested: solubility (mole fraction)
0.0323

* * *

settings: in n-propanol, 285.65 K
measurement label: solubility (mole fraction)
Note: the reply should be a number with no unit written.

Query (molecule): `S=c1[nH]c2ccccc2s1` ; field requested: solubility (mole fraction)
0.0205

* * *

settings: in methanol, 290.65 K
measurement label: solubility (mole fraction)

Query (compound): `S=c1[nH]c2ccccc2s1` ; field requested: solubility (mole fraction)
0.0131

* * *

conditions: in isobutanol, 305.65 K
measurement label: solubility (mole fraction)
Note: the reply should be a number with no unit written.

Query (compound): `S=c1[nH]c2ccccc2s1` ; field requested: solubility (mole fraction)
0.0292

* * *

settings: in n-butanol, 313.15 K
measurement label: solubility (mole fraction)
Note: the reply should be a number with no unit written.

Query (compound): `S=c1[nH]c2ccccc2s1` ; field requested: solubility (mole fraction)
0.0468

* * *

settings: in acetonitrile, 283.15 K
measurement label: solubility (mole fraction)
Note: the reply should be a number with no unit written.

Query (molecule): `S=c1[nH]c2ccccc2s1` ; field requested: solubility (mole fraction)
0.00597

* * *

conditions: in isobutanol, 283.15 K
measurement label: solubility (mole fraction)
Note: the reply should be a number with no unit written.

Query (compound): `S=c1[nH]c2ccccc2s1` ; field requested: solubility (mole fraction)
0.0143

* * *

details: in methanol, 310.65 K
measurement label: solubility (mole fraction)

Query (molecule): `S=c1[nH]c2ccccc2s1` ; field requested: solubility (mole fraction)
0.0235

* * *

conditions: in isopropanol, 300.65 K
measurement label: solubility (mole fraction)
Note: the reply should be a number with no unit written.

Query (compound): `S=c1[nH]c2ccccc2s1` ; field requested: solubility (mole fraction)
0.0242

* * *

settings: in 1,4-dioxane, 295.65 K
measurement label: solubility (mole fraction)
Note: the reply should be a number with no unit written.

Query (molecule): `S=c1[nH]c2ccccc2s1` ; field requested: solubility (mole fraction)
0.0574

* * *

conditions: in 1,4-dioxane, 300.65 K
measurement label: solubility (mole fraction)
Note: the reply should be a number with no unit written.

Query (compound): `S=c1[nH]c2ccccc2s1` ; field requested: solubility (mole fraction)
0.0652

* * *

settings: in n-propanol, 295.65 K
measurement label: solubility (mole fraction)
Note: the reply should be a number with no unit written.

Query (molecule): `S=c1[nH]c2ccccc2s1` ; field requested: solubility (mole fraction)
0.026

* * *

conditions: in methanol, 293.15 K
measurement label: solubility (mole fraction)
Note: the reply should be a number with no unit written.

Query (molecule): `S=c1[nH]c2ccccc2s1` ; field requested: solubility (mole fraction)
0.0141

* * *

conditions: in chloroform, 290.65 K
measurement label: solubility (mole fraction)

Query (compound): `S=c1[nH]c2ccccc2s1` ; field requested: solubility (mole fraction)
0.0104

* * *

conditions: in toluene, 275.65 K
measurement label: solubility (mole fraction)
Note: the reply should be a number with no unit written.

Query (molecule): `S=c1[nH]c2ccccc2s1` ; field requested: solubility (mole fraction)
0.00205

* * *

conditions: in isopropanol, 303.15 K
measurement label: solubility (mole fraction)
Note: the reply should be a number with no unit written.

Query (molecule): `S=c1[nH]c2ccccc2s1` ; field requested: solubility (mole fraction)
0.0261
